Numbers sourced from paper PMC9743598.

- TESTED_SYSTEM: OR2AT4 (Homo sapiens)
- Construct: endogenous full-length receptor in primary human alveolar macrophages from bronchoalveolar lavage; estimated 34 kDa, blot signal about 40 kDa
- Sequence (A6NND4 whole entry): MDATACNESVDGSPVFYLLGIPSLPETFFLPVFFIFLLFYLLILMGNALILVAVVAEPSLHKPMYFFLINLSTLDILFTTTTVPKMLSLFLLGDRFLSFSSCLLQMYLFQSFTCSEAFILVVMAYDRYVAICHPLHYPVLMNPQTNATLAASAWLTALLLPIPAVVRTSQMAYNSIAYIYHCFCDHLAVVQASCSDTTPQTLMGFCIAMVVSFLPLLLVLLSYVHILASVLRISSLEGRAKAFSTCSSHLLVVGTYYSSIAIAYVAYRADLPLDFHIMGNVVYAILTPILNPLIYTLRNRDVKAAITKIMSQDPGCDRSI
- PROTOCOL_SUMMARY: Fura-2 single-cell calcium imaging, primary human alveolar macrophages
- Type: cell-based
- RUN_CONDITIONS: agonist; endogenous receptor in native cells; Ringer solution
RESULT_TYPE: EC50 (µM)
Your answer is read as µM, so omit the unit and give the number.

IN: Consider the compound CC1=CCC(CCC(C)C(C)O)C1(C)C (stereo not shown) and give its measured EC50.
OUT: 190
